experiment: Solubility of NMS-E354 free base in water and early formulation vehicles; assay type: physicochemical; conditions: aqueous 50% Polyethylene Glycol 400 in 5% dextrose solution, aqueous with cosolvent or surfactant or cyclodextrin; read-out: solubility

{"columns": ["structureNotation", "solubility"],
 "data": [
  ["NC(=O)c1cc(-c2ccnc(N)n2)[nH]c1-c1ccc(Cl)cc1Cl", "~7000 µg/mL"]
]}

---

experiment: Solubility of crystalline NMS-E354 salts and free base in 0.9% NaCl solution; format: physicochemical; conditions: stirred 4 hours at RT, excess solid (target 10 mg/ml), filtered, HPLC
Structures can show the parent of a compound that is named as a salt.
Documented Aqueous solubility value across a set of compounds
observationType: Aqueous solubility value (µg/mL)

{"columns": ["compound", "observationType", "readoutNumber"],
 "data": [
  ["NC(=O)c1cc(-c2ccnc(N)n2)[nH]c1-c1ccc(Cl)cc1Cl [Sulfate salt]", "Aqueous solubility value", 150],
  ["NC(=O)c1cc(-c2ccnc(N)n2)[nH]c1-c1ccc(Cl)cc1Cl [Mesylate salt]", "Aqueous solubility value", 120],
  ["NC(=O)c1cc(-c2ccnc(N)n2)[nH]c1-c1ccc(Cl)cc1Cl [Maleate salt]", "Aqueous solubility value", 70],
  ["NC(=O)c1cc(-c2ccnc(N)n2)[nH]c1-c1ccc(Cl)cc1Cl [Hemifumarate salt]", "Aqueous solubility value", 20]
]}

Origin of the recorded values: patent US8658662B2
